Values compiled from ChEMBL document CHEMBL1153097.

This listing pairs compounds with measured zone of inhibition at 100 µg/mL.
Tested on: Proteus vulgaris
Assay: Antimicrobial activity against Proteus vulgaris MTCC 1771 at 100 ug/ml after 24 hrs by agar diffusion method
Format: functional
Details: MTCC 1771, 24 h, read-out: IZ
Enter your answer as a number in mm; do not include the unit.

>  <test_smiles>
COc1ccc(C(=O)/C=C/c2cn(-c3ccccc3)nc2-c2cccc(Cl)c2)c(OC)c1

>  <endpoint_unit>
mm

>  <zone of inhibition at 100 µg/mL>
8

$$$$
>  <test_smiles>
COc1ccc(-c2nn(-c3ccccc3)cc2/C=C/C(=O)c2ccc(OC)cc2OC)cc1

>  <endpoint_unit>
mm

>  <zone of inhibition at 100 µg/mL>
7

$$$$
>  <test_smiles>
COc1ccc(C(=O)/C=C/c2cn(-c3ccccc3)nc2-c2ccc(Cl)cc2)c(OC)c1

>  <endpoint_unit>
mm

>  <zone of inhibition at 100 µg/mL>
12

$$$$

// below: zone of inhibition at 100 µg/mL requested for another compound
Value lookup for zone of inhibition at 100 µg/mL; key = COc1ccc(C(=O)/C=C/c2cn(-c3ccccc3)nc2-c2ccc(F)cc2)c(OC)c1 10

###

Test system: Bacillus subtilis
Assay: Antimicrobial activity against Bacillus subtilis MTCC 1789 at 100 ug/ml after 24 hrs by agar diffusion method
Format: functional
Conditions: MTCC 1789, 24 h, read-out: IZ
So basically: zone of inhibition at 100 µg/mL at 8 mm or higher? That is MET. Lower than 8 mm? That is NOT MET.

// known answers, use as guide
>  <test_smiles>
COc1ccc(-c2nn(-c3ccccc3)cc2/C=C/C(=O)c2ccc(OC)cc2OC)cc1

>  <class_label>
MET

$$$$
>  <test_smiles>
COc1ccc(C(=O)/C=C/c2cn(-c3ccccc3)nc2-c2ccccc2)c(OC)c1

>  <class_label>
MET

$$$$
>  <test_smiles>
COc1ccc(C(=O)/C=C/c2cn(-c3ccccc3)nc2-c2ccc(Cl)cc2Cl)c(OC)c1

>  <class_label>
MET

$$$$

Next:
For this compound, is measured zone of inhibition at 100 µg/mL 8 mm or higher? COc1ccc(C(=O)/C=C/c2cn(-c3ccccc3)nc2-c2ccc(Br)cc2)c(OC)c1 NOT MET

###

Test system: Bacillus subtilis
Assay: Antimicrobial activity against Bacillus subtilis MTCC 1789 at 100 ug/ml after 24 hrs by agar diffusion method
Type: functional
Details: MTCC 1789, 24 h, read-out: IZ
Would you please tag the item yes (1) when its zone of inhibition at 100 µg/mL is 8 mm or above, and no (0) when it is below?

Use the examples below as a reference point.
>  <test_smiles>
COc1ccc(C(=O)/C=C/c2cn(-c3ccccc3)nc2-c2ccc(F)cc2)c(OC)c1

>  <class_label>
yes (1)

$$$$
>  <test_smiles>
COc1ccc(C(=O)/C=C/c2cn(-c3ccccc3)nc2-c2ccc(Cl)cc2)c(OC)c1

>  <class_label>
yes (1)

$$$$
>  <test_smiles>
COc1ccc(C(=O)/C=C/c2cn(-c3ccccc3)nc2-c2ccc(OC)cc2OC)c(OC)c1

>  <class_label>
no (0)

$$$$

Read the next record carefully.
Exam item: decide whether the reported zone of inhibition at 100 µg/mL for COc1ccc(C(=O)/C=C/c2cn(-c3ccccc3)nc2-c2ccccc2Cl)c(OC)c1 is at least 8 mm. no (0)
